Assign Kd to each entry below.
- STUDY TARGET: T1, monomeric recombinant human Notch3 extracellular domain (containing EGF like domains 1-11) fusion protein (human, UniProt Q9UM47 40-467)
- T1 construct: domain: EGF like domains 1-11; also called monomeric rhNotch3
- T1 sequence (looked up): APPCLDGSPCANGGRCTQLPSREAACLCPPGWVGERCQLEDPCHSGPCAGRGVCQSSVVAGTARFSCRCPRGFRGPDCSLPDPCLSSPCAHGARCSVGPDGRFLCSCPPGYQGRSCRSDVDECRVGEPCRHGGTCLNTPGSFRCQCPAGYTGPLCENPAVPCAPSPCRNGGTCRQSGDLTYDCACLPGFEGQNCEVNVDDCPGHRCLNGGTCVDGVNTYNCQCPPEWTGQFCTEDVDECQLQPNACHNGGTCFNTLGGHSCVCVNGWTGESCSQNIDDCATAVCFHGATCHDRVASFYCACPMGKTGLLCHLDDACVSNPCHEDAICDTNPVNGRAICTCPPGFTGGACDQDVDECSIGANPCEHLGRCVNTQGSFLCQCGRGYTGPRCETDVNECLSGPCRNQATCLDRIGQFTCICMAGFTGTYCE
- METHOD NOTES: SPR BIAcore T100, antibody captured by anti-human IgG Fc, monomeric rhNotch3 analyte, 37 C
Give the number; nM is assumed, so skip it.

Requested read-out: Kd. Entry: Hu4F11-80 (antibody, human IgG1, kappa, V domains shown, Humanized, human IgG1 kappa; Hv3-23 S31H T62S heavy + Kv2D-29 N28Q kappa) VH: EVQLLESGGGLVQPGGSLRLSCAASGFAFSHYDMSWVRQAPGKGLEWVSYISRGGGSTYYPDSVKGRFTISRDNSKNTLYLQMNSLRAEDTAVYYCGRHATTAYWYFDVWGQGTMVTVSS VL: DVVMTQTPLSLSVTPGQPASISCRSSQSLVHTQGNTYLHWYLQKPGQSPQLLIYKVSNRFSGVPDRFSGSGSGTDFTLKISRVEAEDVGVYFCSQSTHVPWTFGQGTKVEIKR 3.8

What value of Kd has been recorded for this entry: Hu4F11-32 (antibody, human IgG1, kappa, V domains shown, Humanized, human IgG1 kappa; Sh4F11 Hv3-23 heavy + Hu4F11 Kv2D-29 kappa) VH: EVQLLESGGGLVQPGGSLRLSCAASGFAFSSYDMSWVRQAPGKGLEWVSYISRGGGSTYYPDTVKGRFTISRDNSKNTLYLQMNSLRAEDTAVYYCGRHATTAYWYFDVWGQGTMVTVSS VL: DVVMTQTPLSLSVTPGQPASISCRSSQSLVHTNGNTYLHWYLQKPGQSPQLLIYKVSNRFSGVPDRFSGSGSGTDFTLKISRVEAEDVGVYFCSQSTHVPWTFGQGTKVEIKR 2.7

Look up Kd: Hu4F11-78 (antibody, human IgG1, kappa, V domains shown, Humanized, human IgG1 kappa; Hv3-23 A28T S31H T62S heavy + Kv2D-29 N28Q kappa) VH: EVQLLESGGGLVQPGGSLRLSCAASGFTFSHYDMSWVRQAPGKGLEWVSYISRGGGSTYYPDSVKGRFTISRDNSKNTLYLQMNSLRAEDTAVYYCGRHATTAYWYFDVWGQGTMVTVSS VL: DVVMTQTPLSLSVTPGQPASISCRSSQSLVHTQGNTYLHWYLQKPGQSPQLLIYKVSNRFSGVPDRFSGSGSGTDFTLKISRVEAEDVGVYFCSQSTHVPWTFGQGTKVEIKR 3.8
